Each entry below lists one item and its recorded normalised response value.
Test system: MFM-223
Experiment: normalised response (% of control), CellTiter-Glo; higher = more viable cells (100 = DMSO, 0 = benzethonium chloride kill control)
Settings: incubation time: 72 h
Enter your answer as a number in %; do not include the unit.

// known answers, use as guide
compound="CC(C)(C#N)c1cc(Cn2cncn2)cc(C(C)(C)C#N)c1 [Anastrozole] (100 nM)" study_target=MFM-223 measurement_type="normalised response" quantitative_result=104
compound="c1ccc([C@H]2CN3CCSC3=N2)cc1 [Levamisole] (100 nM)" study_target=MFM-223 measurement_type="normalised response" quantitative_result=113
compound="Cn1c(=O)n(-c2ccc(C(C)(C)C#N)cc2)c2c3cc(-c4cnc5ccccc5c4)ccc3ncc21 [Dactolisib] (10 nM)" study_target=MFM-223 measurement_type="normalised response" quantitative_result=83.8

The reported normalised response of the compound Nc1ncnc2c1c(COc1cccc(Cl)c1)nn2C1CCOCC1 (100 nM) was 105

In plain terms, CC(C)c1c(C(=O)Nc2ccccc2)c(-c2ccccc2)c(-c2ccc(F)cc2)n1CC[C@@H](O)C[C@@H](O)CC(=O)O [Atorvastatin] (100 nM) has a documented normalised response of 98.9

Entry under test: CNNCc1ccc(C(=O)NC(C)C)cc1 [Procarbazine] (100 nM) . Its normalised response was 103

Given item C[C@]12CC[C@H](O)CC1=CC[C@@H]1[C@@H]2CC[C@]2(C)C(c3cccnc3)=CC[C@@H]12 [Abiraterone] (50 nM) , the value recorded as its normalised response is 105

Memo: CC[C@]1(O)C[C@H]2CN(CCc3c([nH]c4ccccc34)[C@@](C(=O)OC)(c3cc4c(cc3OC)N(C=O)[C@H]3[C@@](O)(C(=O)OC)[C@H](OC(C)=O)[C@]5(CC)C=CCN6CC[C@]43[C@@H]65)C2)C1 [Vincristine] (10 nM) , reported normalised response: 90.8

###

System: MDA-MB-453
Assay: normalised response (% of control), CellTiter-Glo; higher = more viable cells (100 = DMSO, 0 = benzethonium chloride kill control)
Conditions: incubation time: 72 h
Examples of compounds with documented normalised response follow.
Be sure to follow the number with its unit.

compound="Cn1cncc1[C@@](N)(c1ccc(Cl)cc1)c1ccc2c(c1)c(-c1cccc(Cl)c1)cc(=O)n2C [Tipifarnib] (1 nM)" study_target=MDA-MB-453 measurement_type="normalised response" result=109%

For CO[C@H]1C[C@@H]2CC[C@@H](C)[C@@](O)(O2)C(=O)C(=O)N2CCCC[C@H]2C(=O)O[C@H]([C@H](C)C[C@@H]2CC[C@@H](OCCO)[C@H](OC)C2)CC(=O)[C@H](C)/C=C(\C)[C@@H](O)[C@@H](OC)C(=O)[C@H](C)C[C@H](C)/C=C/C=C/C=C/1C [Everolimus] (0.01 nM) the compound record lists normalised response as 99.3%

What the record says about C/C(=C\c1csc(C)n1)[C@@H]1C[C@@H]2O[C@]2(C)CCC[C@H](C)[C@H](O)[C@@H](C)C(=O)C(C)(C)[C@@H](O)CC(=O)O1 [Patupilone] (1 nM) : normalised response is 107%

GET /value?item= CC(C)c1c(C(=O)Nc2ccccc2)c(-c2ccccc2)c(-c2ccc(F)cc2)n1CC[C@@H](O)C[C@@H](O)CC(=O)O [Atorvastatin] (10 nM) &field=normalised response returns 104%

Kindly note the recorded normalised response for Cn1c(=O)n(-c2ccc(C(C)(C)C#N)cc2)c2c3cc(-c4cnc5ccccc5c4)ccc3ncc21 [Dactolisib] (1 nM) , which is 110%

Summary for this compound, CNNCc1ccc(C(=O)NC(C)C)cc1 [Procarbazine] (1 nM) : normalised response is 108%

Looking up CN(C)C[C@@H]1CCn2cc(c3ccccc32)C2=C(C(=O)NC2=O)c2cn(c3ccccc23)CCO1 [Ruboxistaurin] (10 nM) , I see its normalised response listed as 100%

get_value(item= Cc1ccc(NC(=O)c2ccc(CN3CCN(C)CC3)cc2)cc1Nc1nccc(-c2cccnc2)n1 [Imatinib] (1 nM) , readout=normalised response) returns 119%

GET /value?item= COc1ccccc1S(=O)(=O)Nc1ccc2c(c1)CN(C)C(=O)N2 [PFI-1] (1 nM) &field=normalised response returns 105%

Kindly note the recorded normalised response for CC(C)(C#N)c1cc(Cn2cncn2)cc(C(C)(C)C#N)c1 [Anastrozole] (10 nM) , which is 104%

normalised response in this record for C[C@]12CC[C@H](O)CC1=CC[C@@H]1[C@@H]2CC[C@]2(C)C(c3cccnc3)=CC[C@@H]12 [Abiraterone] (500 nM) : 99.3%

So for COc1ccc(-c2ccc3c(N4CCOC[C@@H]4C)nc(N4CCOC[C@@H]4C)nc3n2)cc1CO [AZD8055] (1 nM) , the logged normalised response turned out to be 104%

Data point: Cn1cncc1[C@@](N)(c1ccc(Cl)cc1)c1ccc2c(c1)c(-c1cccc(Cl)c1)cc(=O)n2C [Tipifarnib] (10 nM) ; normalised response = 84.6%

###

Overview of reported normalised viability across a group of compounds:
System: DU-4475
Assay: normalised viability (% of control), CellTiter-Blue; higher = more viable cells (about 100 = DMSO control)
Settings: 3000 nM; incubation time: 72 h
Kindly provide the numeric value in % only, without the unit symbol.

compound="CN(C)C[C@@H]1CCn2cc(c3ccccc32)C2=C(C(=O)NC2=O)c2cn(c3ccccc23)CCO1 [Ruboxistaurin]" unit_annotation=% quantitative_result=61.1
compound="COc1ccc(-c2ccc3c(N4CCOC[C@@H]4C)nc(N4CCOC[C@@H]4C)nc3n2)cc1CO [AZD8055]" unit_annotation=% quantitative_result=14.1
compound="CCCCCCCCc1ccc(CCC(N)(CO)CO)cc1 [Fingolimod]" unit_annotation=% quantitative_result=117
compound="CN(C)CCN1C(=O)c2cccc3cc(N)cc(c23)C1=O [Amonafide]" unit_annotation=% quantitative_result=57.9

Now let's try a different one.
Please fill in: normalised viability reported for CN1CCN(CCOc2cc(OC3CCOCC3)c3c(Nc4c(Cl)ccc5c4OCO5)ncnc3c2)CC1 [Saracatinib] = 120

###

Test system: DU-4475
Assay: normalised response (% of control), CellTox Green; higher = less cell death (100 = DMSO, 0 = benzethonium chloride kill control)
Details: incubation time: 72 h
measurement.type: normalised response (%)
A number alone suffices; assume %.

Study these solved cases before continuing.
molecule="Cn1cncc1[C@@](N)(c1ccc(Cl)cc1)c1ccc2c(c1)c(-c1cccc(Cl)c1)cc(=O)n2C [Tipifarnib] (10000 nM)" quantitative_result=85.6
molecule="CNNCc1ccc(C(=O)NC(C)C)cc1 [Procarbazine] (10000 nM)" quantitative_result=96.2
molecule="CC(C)c1c(C(=O)Nc2ccccc2)c(-c2ccccc2)c(-c2ccc(F)cc2)n1CC[C@@H](O)C[C@@H](O)CC(=O)O [Atorvastatin] (10000 nM)" quantitative_result=98
molecule="CC(C)(C#N)c1cc(Cn2cncn2)cc(C(C)(C)C#N)c1 [Anastrozole] (1000 nM)" quantitative_result=100
molecule="CC(C)c1c(C(=O)Nc2ccccc2)c(-c2ccccc2)c(-c2ccc(F)cc2)n1CC[C@@H](O)C[C@@H](O)CC(=O)O [Atorvastatin] (1000 nM)" quantitative_result=101
molecule="CN(C)C[C@@H]1CCn2cc(c3ccccc32)C2=C(C(=O)NC2=O)c2cn(c3ccccc23)CCO1 [Ruboxistaurin] (100 nM)" quantitative_result=99.3

Item C/C(=C\c1csc(C)n1)[C@@H]1C[C@@H]2O[C@]2(C)CCC[C@H](C)[C@H](O)[C@@H](C)C(=O)C(C)(C)[C@@H](O)CC(=O)O1 [Patupilone] (100 nM) ; assay system DU-4475; normalised response reported as 94.5

For CN(C)CCN1C(=O)c2cccc3cc(N)cc(c23)C1=O [Amonafide] (10000 nM) on DU-4475, measured normalised response was 83.8

Value sought: normalised response, system DU-4475, item C[C@]12CC[C@H](O)CC1=CC[C@@H]1[C@@H]2CC[C@]2(C)C(c3cccnc3)=CC[C@@H]12 [Abiraterone] (50 nM) . Result: 101

###

Test system: MDA-MB-468
Conditions: 72 h
measurement.type: EC50, CellTiter-Blue viability (µM)
State the answer as a number, implicitly in µM.

compound="CN(C)C[C@@H]1CCn2cc(c3ccccc32)C2=C(C(=O)NC2=O)c2cn(c3ccccc23)CCO1 [Ruboxistaurin]" quantitative_result=2.69

For the compound CN(C)CCN1C(=O)c2cccc3cc(N)cc(c23)C1=O [Amonafide] , the measured EC50, CellTiter-Blue viability on MDA-MB-468 was 6.67

# O=C1NC(=O)[C@@H](c2cn3c4c(cccc24)CCC3)[C@@H]1c1c[nH]c2ccccc12 [Tivantinib] with MDA-MB-468: EC50, CellTiter-Blue viability is 0.578

Simply: O=C(O)CCCc1ccc(N(CCCl)CCCl)cc1 [Chlorambucil] , MDA-MB-468, EC50, CellTiter-Blue viability = 5.34
